Test system: pathogens of clinical samples
Experiment: Molecular phenotypic antimicrobial susceptibility test of clinical samples, extraction DNA purification step prior to PCR (Table 6)
Type: cell-based
Details: E. coli, clinical sample of r158-r172, Ct Control Avg 20.146
Below, each entry is listed alongside its reported Ct.

| compound | Ct |
| --- | --- |
| C[C@@H]1O[C@@H]1P(=O)(O)O [Fosfomycin] | 30.261 |
| CO/N=C(\C(=O)N[C@@H]1C(=O)N2C(C(=O)O)=C(CSc3nc(=O)c(=O)[nH]n3C)CS[C@H]12)c1csc(N)n1 [Ceftriaxone] | 29.851 |
| CN(C)[C@@H]1C(O)=C(C(N)=O)C(=O)[C@@]2(O)C(O)=C3C(=O)c4c(O)cccc4[C@@](C)(O)[C@H]3C[C@@H]12 [Tetracycline] | 34.28 |
| CO[C@@]1(NC(=O)Cc2cccs2)C(=O)N2C(C(=O)O)=C(COC(N)=O)CS[C@@H]21 [Cefoxitin] | 31.631 |
| CC1(C)S[C@@H]2[C@H](NC(=O)[C@H](N)c3ccccc3)C(=O)N2[C@H]1C(=O)O [Ampicillin] | 29.961 |
| C[C@@H](O)[C@H]1C(=O)N2C(C(=O)O)=C(S[C@@H]3CN[C@H](C(=O)N(C)C)C3)[C@H](C)[C@H]12 [Meropenem] | 30.723 |
| C[C@H]1COc2c(N3CCN(C)CC3)c(F)cc3c(=O)c(C(=O)O)cn1c23 [Levofloxacin] | 34.012 |
| O=C1CN(/N=C/c2ccc([N+](=O)[O-])o2)C(=O)N1 [Nitrofurantoin] | 34.794 |

Taken from patent US20250290117A1.
